Molecular target: ADAM10 (Homo sapiens)
Construct: purchased R&D Systems 936-AD
Test: ADAM10 glycosylated substrate uHTS/HTS assay
Format: biochemical
Settings: reordered powder, HTS assay, glycosylated substrate, 0.5 h pre-incubation
Measure name: IC50 (nM)

>>> print(df.to_string())
                               query_smiles  quantitative_readout
0  COc1cccc(C(=O)NNC(=O)C(=O)Nc2ccc(C)c(Cl)c2)c1                  1100

====

Target: ADAM10 (Homo sapiens, UniProt O14672)
Construct: purchased R&D Systems 936-AD
Sequence (O14672 214-748): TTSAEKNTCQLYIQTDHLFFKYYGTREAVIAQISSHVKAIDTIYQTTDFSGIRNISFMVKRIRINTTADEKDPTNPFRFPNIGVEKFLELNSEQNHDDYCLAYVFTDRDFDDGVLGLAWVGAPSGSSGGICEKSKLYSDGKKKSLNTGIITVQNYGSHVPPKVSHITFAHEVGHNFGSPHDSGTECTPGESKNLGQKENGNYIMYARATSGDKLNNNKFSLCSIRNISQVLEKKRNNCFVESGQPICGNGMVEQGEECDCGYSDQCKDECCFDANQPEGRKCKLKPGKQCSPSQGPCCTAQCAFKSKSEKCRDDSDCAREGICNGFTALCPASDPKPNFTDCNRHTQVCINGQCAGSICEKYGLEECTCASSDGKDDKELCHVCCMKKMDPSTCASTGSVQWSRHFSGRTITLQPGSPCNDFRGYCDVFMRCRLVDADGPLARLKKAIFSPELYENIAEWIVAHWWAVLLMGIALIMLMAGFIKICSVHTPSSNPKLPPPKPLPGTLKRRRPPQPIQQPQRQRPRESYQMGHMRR
Assay: HPLC-based ADAM10 assay using glycosylated substrate
Format: biochemical
pIC50: −log10 of the molar value.
Measure name: pIC50

In [3]: df
Out[3]:
                               query_smiles  quantitative_readout
0  COc1cccc(C(=O)NNC(=O)C(=O)Nc2ccc(C)c(Cl)c2)c1                  5.39

Just for reference, paper PMC5431342 is where these values come from.
